- assayed.system: Rhesus/Macaque TNF (rhesus/macaque, UniProt P48094 77-233)
- Sequence (P48094 77-233 limits assumed): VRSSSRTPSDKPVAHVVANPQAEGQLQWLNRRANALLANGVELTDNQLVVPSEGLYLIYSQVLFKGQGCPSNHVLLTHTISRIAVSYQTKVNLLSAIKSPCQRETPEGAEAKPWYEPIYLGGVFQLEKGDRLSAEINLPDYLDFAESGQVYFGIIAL
- assay.explanation: cell-based or functional assay
assay.metric: rhesus TNF neutralization IC50 (L929 bioassay)

hMAK195-AM16 (antibody, V domains shown, Full-length IgG; also called rHC19; hMAK195 rHC19) VH: EVQLVESGGGLVQPGGSLRLSCAASGFTFSNYGVTWVRQAPGKGLEWVSMIWADGSTHYASSVKGRFTISRDNSKNTLYLQMNSLRAEDTAVYYCAREWQHGPAAYWGQGTLVTVSS VL: DIQMTQSPSSLSASVGDRVTITCKASQAVSSAVAWYQQKPGKAPKLLIYWASTRHTGVPSRFSGSGSGTDFTLTISSLQPEDFATYYCQQHYSTPFTFGQGTKLEIKR; 0.803 nM
hMAK195-AM25 (antibody, V domains shown, Full-length IgG; also called S4-24; hMAK195 S4-24) VH: EVQLVESGGGLVQPGGSLRLSCAASGFTFSNYGVTWVRQAPGKGLEWVSMIWADGSTHYASSVKGRFTISRDNSKNTLYLQMNSLRAEDTAVYYCAREWQHGPVAYWGQGTLVTVSS VL: DIQMTQSPSSLSASVGDRVTITCRASQLVSSAVAWYQQKPGKAPKLLIYWASTLHTGVPSRFSGSGSGTDFTLTISSLQPEDFATYYCQQHYRTPFTFGQGTKLEIKR; 0.262 nM

// provenance: patent US20130164256A1
